# target.desc: T1, SYNJ2BP, P57105
# T1 sequence (P57105 8-110, limits assumed, looked up): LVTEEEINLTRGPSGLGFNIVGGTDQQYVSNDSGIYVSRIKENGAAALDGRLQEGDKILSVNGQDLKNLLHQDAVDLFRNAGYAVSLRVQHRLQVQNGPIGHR
# protocol: holdup assay
# Set-up: key: below the threshold = too weak to quantify, mostly under pKd 3.1 to 4
# experimental.setup: plain residues with an end cap or a label only (N-terminal biotin on a linker: ado-ado)
result.type: pKd

INSERT INTO assay_data (binder, obs_value) VALUES
  ('YYKRPVQEWV [MMP24, Q9Y5R2]', 3.91),
  ('IKAIVDLTGL [TRAF2, Q12933]', 'below the threshold'),
  ('RRISSLESEV [GRIN2C, Q14957]', 5.38),
  ('VDSTVKVWTC [TRAF7, Q6Q0C0]', 'below the threshold'),
  ('DDEDRLVIEI [ZNF831, Q5JPB2]', 'below the threshold'),
  ('DDPSTAETVL [ABCA7, Q8IZY2]', 4.16),
  ('TASPAKETSF [SLC2A7, Q6PXP3]', 'below the threshold'),
  ('EKKTLIGIKL [GOT1L1, Q8NHS2]', 'below the threshold'),
  ('PRISRSQSEL [CCDC134, Q9H6E4]', 4.09),
  ('GSGAVEMESV [AQP6, Q13520]', 'below the threshold'),
  ('LPHGHSTTRV [NLGN4X, Q8N0W4]', 3.9),
  ('LPHPHSTTRV [NLGN2, Q8NFZ4]', 3.84),
  ('QHKTQLQTLI [BPIFA2, Q96DR5]', 4.12),
  ('TSQESEDTYL [TBC1D10A, Q9BXI6]', 3.93);
